Molecular target: human ether-à-go-go-related gene (hERG) potassium channel (human);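 note: peak tail current of the secondary pulse compared with the same well before compound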
Sequence (Q12809 whole entry, looked up): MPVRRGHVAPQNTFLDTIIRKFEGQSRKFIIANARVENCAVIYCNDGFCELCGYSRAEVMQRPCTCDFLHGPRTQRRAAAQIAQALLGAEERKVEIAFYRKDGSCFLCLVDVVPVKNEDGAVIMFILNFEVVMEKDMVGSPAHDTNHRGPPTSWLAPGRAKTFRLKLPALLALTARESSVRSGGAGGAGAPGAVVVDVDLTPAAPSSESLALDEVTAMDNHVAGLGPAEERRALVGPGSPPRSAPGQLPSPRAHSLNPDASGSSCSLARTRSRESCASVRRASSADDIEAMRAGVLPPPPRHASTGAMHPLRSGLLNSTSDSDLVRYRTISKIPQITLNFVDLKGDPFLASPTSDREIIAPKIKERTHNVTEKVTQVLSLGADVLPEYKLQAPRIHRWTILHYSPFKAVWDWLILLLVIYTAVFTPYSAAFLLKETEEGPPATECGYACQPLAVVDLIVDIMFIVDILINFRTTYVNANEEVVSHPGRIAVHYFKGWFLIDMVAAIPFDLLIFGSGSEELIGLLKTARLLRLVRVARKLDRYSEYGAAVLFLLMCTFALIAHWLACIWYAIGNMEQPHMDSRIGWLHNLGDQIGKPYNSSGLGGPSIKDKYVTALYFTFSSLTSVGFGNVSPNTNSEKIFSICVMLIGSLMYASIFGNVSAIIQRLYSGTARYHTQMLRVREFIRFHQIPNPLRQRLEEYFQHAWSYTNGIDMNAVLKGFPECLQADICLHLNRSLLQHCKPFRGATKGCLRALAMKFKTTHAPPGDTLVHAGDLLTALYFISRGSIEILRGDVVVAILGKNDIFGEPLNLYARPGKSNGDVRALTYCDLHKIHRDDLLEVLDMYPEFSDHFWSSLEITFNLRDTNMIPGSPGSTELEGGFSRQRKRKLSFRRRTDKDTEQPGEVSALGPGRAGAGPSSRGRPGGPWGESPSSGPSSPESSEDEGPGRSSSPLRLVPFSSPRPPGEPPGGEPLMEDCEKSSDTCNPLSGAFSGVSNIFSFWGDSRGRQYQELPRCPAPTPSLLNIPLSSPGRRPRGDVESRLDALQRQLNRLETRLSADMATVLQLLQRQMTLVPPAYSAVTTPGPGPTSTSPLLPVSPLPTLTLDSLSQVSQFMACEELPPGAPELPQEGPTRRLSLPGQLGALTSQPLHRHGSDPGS
Experiment: primary screen, population patch clamp on CHO cells stably expressing hERG; higher = less effect of the substance
The whole screen tested about 310,000 compounds, of which about 14,000 (4.5%) showed an effect of 50% or more. Effects have a minus sign here. Shown is part of a subset that was picked to be rich in strong results.
Entries are grouped by hERG current change (%, negative = inhibition) at 10uM into these classes: Low: < -10%; Medium: ≥ -10% and < 10%; High: ≥ 10%

- compound: "c1ccc(CCCN2CCOCC2)cc1"
  label-value: "High"
- compound: "CCc1nnc(NS(=O)(=O)c2ccc(NC(=O)/C=C/c3ccc(F)cc3)cc2)s1"
  label-value: "Medium"
- compound: "CC(=O)c1ccc(NC(=O)Nc2ccccc2)cc1"
  label-value: "Medium"
- compound: "CCOC(=O)c1ccc(NC(=S)NCc2ccco2)cc1"
  label-value: "Low"
- compound: "COc1cccc(-c2cc(C(=O)NCCc3ccccc3)no2)c1"
  label-value: "High"

Qu. Dear colleague, I would appreciate it if you could identify the bin for Nc1ccc(-c2ccc(N)c(C(=O)O)c2)cc1C(=O)O and reply at your convenience.
Ans. Medium

Qu. Form field 'band' for COc1ccc2c(c1)OC(O)(C(F)(F)F)CC2=O (stereo not drawn)
Ans. Medium

Qu. Which class holds C=CCN1C(=O)C2C(C(=O)NC3CCCC3)C3C=CC2(O3)C1C(=O)NC1CCCC1 (stereo not drawn) ?
Ans. High

Qu. Just checking, what class would you give COc1ccc(CCNC(=O)CCS(=O)(=O)c2ccc3c(c2)NC(=O)CO3)cc1OC here?
Ans. High

Qu. Which class is correct for the following compound? FC(F)(F)c1cccc(-c2nc3nc(Cl)c(Cl)nc3[nH]2)c1
Ans. High

Qu. Please classify: COc1cccc(-c2cc(C(=O)N3CCN(Cc4ccccc4)CC3)no2)c1
Ans. Low

Qu. Which category does the recorded hERG current change (%, negative = inhibition) at 10uM put CCOC(=O)c1ccc(NC(=S)N(CCN2CCCCCC2)Cc2ccco2)cc1 in?
Ans. Low

Qu. # classify by hERG current change (%, negative = inhibition) at 10uM band: CCOC(=O)c1c(S(=O)(=O)NCC(C)c2ccccc2)c(C)n(C)c1C (stereo not drawn)
Ans. Low

Qu. Which category fits this record: CCC(=O)n1nc(-c2ccco2)nc1N
Ans. High

Qu. Lab note: sort OC1(Cc2cc(-c3ccccc3)no2)CCN(CCCc2ccccc2)CC1 into the matching hERG current change (%, negative = inhibition) at 10uM band.
Ans. Low
